TARGET_OF_ASSAY: hSSTR2 (Homo sapiens, UniProt P30874)
Construct: host or cells: 'Cells expressing hSSTR2'
Sequence (P30874 whole entry): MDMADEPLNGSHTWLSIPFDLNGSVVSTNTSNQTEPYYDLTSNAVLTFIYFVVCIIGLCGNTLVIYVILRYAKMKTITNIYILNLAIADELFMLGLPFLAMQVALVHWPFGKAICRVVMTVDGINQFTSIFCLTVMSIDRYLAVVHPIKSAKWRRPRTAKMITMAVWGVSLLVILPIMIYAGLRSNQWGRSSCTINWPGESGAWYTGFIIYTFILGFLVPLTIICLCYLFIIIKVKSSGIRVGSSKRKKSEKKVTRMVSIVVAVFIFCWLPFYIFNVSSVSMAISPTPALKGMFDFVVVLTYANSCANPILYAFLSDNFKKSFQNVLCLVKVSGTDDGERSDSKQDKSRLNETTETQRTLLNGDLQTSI
PROTOCOL_SUMMARY: Somatostatin receptor radioligand binding assay (hSSTR2);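 note: radioligand displacement on membranes of CHO-K1 cells stably transfected with human SSTR2, specific binding taken as total minus binding left with 1000 nM SRIF-14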
Exercise: state measured Ki for each of the compounds provided.
Your answer should be a plain number; it is taken to be in nM.

In: GET /values?readout=Ki&item= C[C@@H](O)[C@@H]1NC(=O)[C@H](CCCCN)NC(=O)[C@@H](Cc2c[nH]c3ccccc23)NC(=O)[C@H](Cc2ccncc2)NC(=O)[C@H](Cc2ccccc2)NC(=O)[C@H](CCCNC(=N)N)NC(=O)[C@H](NC[C@H](CCCCNC(=O)C[S+]([O-])C[C@@H]2C[C@@H]3c4cccc5[nH]cc(c45)C[C@H]3N(C)C2)NC(=O)C[S+]([O-])C[C@@H]2C[C@@H]3c4cccc5[nH]cc(c45)C[C@H]3N(C)C2)CCCCNC(=O)[C@H](Cc2ccc(O)cc2)NC1=O (stereo partly drawn)
Out: 0.04

In: Now the compound C[C@@H](O)[C@@H]1NC(=O)[C@H](CCCCN)NC(=O)[C@@H](Cc2c[nH]c3ccccc23)NC(=O)[C@H](Cc2ccncc2)NC(=O)[C@H](Cc2ccccc2)NC(=O)[C@H](CCCNC(=N)N)NC(=O)[C@H](NCC[S@+]([O-])C[C@@H]2C[C@@H]3c4cccc5[nH]cc(c45)C[C@H]3N(C)C2)CCCCNC(=O)[C@H](Cc2ccc(O)cc2)NC1=O
Out: 0.05

In: Same question, C[C@@H](O)[C@@H]1NC(=O)[C@H](CCCCN)NC(=O)[C@@H](Cc2c[nH]c3ccccc23)NC(=O)[C@H](Cc2ccncc2)NC(=O)[C@H](Cc2ccccc2)NC(=O)[C@H](CCCNC(=N)N)NC(=O)[C@H](NC[C@H](Cc2ccc(O)cc2)NC(=O)C[S+]([O-])C[C@@H]2C[C@@H]3c4cccc5[nH]cc(c45)C[C@H]3N(C)C2)CCCCNC(=O)[C@H](Cc2ccccc2)NC1=O (stereo partly drawn) this time
Out: 0.02
